// values below are reported growth yield
# Tested on: Trichoderma virens ATCC 9645
# measurement-description: growth yield (OD600) with compound + IPBC relative to untreated control; higher = less growth inhibition
# assay-setup: compound concentration: 100 uM; IPBC concentration: 200 ng/ml; 72 h
Screen size: about 1,300 compounds; about 130 (10%) showed an effect of 50% or more. This is one part of a sample in which strong results are shown more often than they occur.
Quick note: give the figure in %, leave out the unit.

These recorded examples may help you get a feel for the data.
Provide value of growth yield for this record tested with Trichoderma virens ATCC 9645: N=C(N)c1ccc(OCCCCCOc2ccc(C(=N)N)cc2)cc1 [Pentamidine isethionate] + CCCCNC(=O)OCC#CI [3-iodo-2-propynyl butylcarbamate (IPBC)]
2.1

Provide value of growth yield for this record tested with Trichoderma virens ATCC 9645: CCCCOc1ccc(CC(=O)NO)cc1 [Bufexamac] + CCCCNC(=O)OCC#CI [3-iodo-2-propynyl butylcarbamate (IPBC)]
95.4

Further cases:
Provide value of growth yield for this record tested with Trichoderma virens ATCC 9645: CSc1nc2cc(Cl)c(Oc3cccc(Cl)c3Cl)cc2[nH]1 [Triclabendazole] + CCCCNC(=O)OCC#CI [3-iodo-2-propynyl butylcarbamate (IPBC)]
120

Provide value of growth yield for this record tested with Trichoderma virens ATCC 9645: C[C@H](CCC(=O)O)[C@H]1CC[C@H]2[C@@H]3[C@@H](O)C[C@@H]4C[C@H](O)CC[C@]4(C)[C@H]3CC[C@]12C [Urosiol] + CCCCNC(=O)OCC#CI [3-iodo-2-propynyl butylcarbamate (IPBC)]
99.7

Provide value of growth yield for this record tested with Trichoderma virens ATCC 9645: CC[N+](C)(CC)CCC[n+]1c(-c2ccccc2)c2cc(N)ccc2c2ccc(N)cc21 [Propidium iodide] + CCCCNC(=O)OCC#CI [3-iodo-2-propynyl butylcarbamate (IPBC)]
12.7

* * *

# System: Trichoderma virens ATCC 9645
# measurement-description: growth yield (OD600) with compound + IPBC relative to untreated control; higher = less growth inhibition
# assay-setup: compound concentration: 100 uM; IPBC concentration: 200 ng/ml; 40 h
Counter-ions that a name gives are not always drawn. The whole screen tested about 1,300 compounds, of which about 130 (10%) showed an effect of 50% or more. For the sample, strong results were picked, then their nearest neighbours and some compounds at random.
measurement-name: growth yield (%)
Quick note: give the figure in %, leave out the unit.

I have this compound here, CN(C)CCCSC(=N)N [Dimaprit dihydrochloride] + CCCCNC(=O)OCC#CI [3-iodo-2-propynyl butylcarbamate (IPBC)] , and I need its recorded growth yield.
93.9

Further cases:
I have this compound here, CCCCC[C@H](O)/C=C/[C@@H]1[C@@H](C/C=C\CCCC(=O)O)[C@@H](O)C[C@H]1O [Dinoprost trometamol] + CCCCNC(=O)OCC#CI [3-iodo-2-propynyl butylcarbamate (IPBC)] , and I need its recorded growth yield.
83.1

I have this compound here, C[C@@H](c1ncncc1F)[C@](O)(Cn1cncn1)c1ccc(F)cc1F [Voriconazole] + CCCCNC(=O)OCC#CI [3-iodo-2-propynyl butylcarbamate (IPBC)] , and I need its recorded growth yield.
5.24

I have this compound here, CCN(CC)CCNC(=O)c1cc(Br)c(N)cc1OC [Bromopride] + CCCCNC(=O)OCC#CI [3-iodo-2-propynyl butylcarbamate (IPBC)] , and I need its recorded growth yield.
92.6

I have this compound here, CCCC(C)C1(CC)C(=O)NC(=O)NC1=O (stereo unspecified) [Pentobarbital] + CCCCNC(=O)OCC#CI [3-iodo-2-propynyl butylcarbamate (IPBC)] , and I need its recorded growth yield.
87.4

I have this compound here, CN1C(C(=O)Nc2ccccn2)=C(O)c2sccc2S1(=O)=O [Tenoxicam] + CCCCNC(=O)OCC#CI [3-iodo-2-propynyl butylcarbamate (IPBC)] , and I need its recorded growth yield.
83.1

* * *

# System: Trichoderma virens ATCC 9645
# measurement-description: growth yield (OD600) with compound + IPBC relative to untreated control; higher = less growth inhibition
# assay-setup: compound concentration: 100 uM; IPBC concentration: 200 ng/ml; 40 h
Where a name gives a salt, the structure may show the parent alone. The campaign covered roughly 1,300 compounds. About 130 (10%) showed an effect of 50% or more. The full list was thinned out, with strong results kept by preference.
Could you label it criterion met if measured growth yield is 80% or higher, and criterion not met otherwise?

Reference set (4 entries):
Quick check, growth yield >= 80%? CN1CCN(C(c2ccccc2)c2ccc(Cl)cc2)CC1 (stereo not given) [Chlorcyclizine hydrochloride] + CCCCNC(=O)OCC#CI [3-iodo-2-propynyl butylcarbamate (IPBC)]
criterion not met

Quick check, growth yield >= 80%? CC(C)N1CCN(c2ccc(OCC3COC(Cn4cncn4)(c4ccc(Cl)cc4Cl)O3)cc2)CC1 (stereo not given) [Terconazole] + CCCCNC(=O)OCC#CI [3-iodo-2-propynyl butylcarbamate (IPBC)]
criterion not met

Quick check, growth yield >= 80%? CC(=O)N1CCN(c2ccc(OCC3COC(Cn4ccnc4)(c4ccc(Cl)cc4Cl)O3)cc2)CC1 (stereo not given) [Ketoconazole] + CCCCNC(=O)OCC#CI [3-iodo-2-propynyl butylcarbamate (IPBC)]
criterion not met

Quick check, growth yield >= 80%? C#Cc1cccc(Nc2ncnc3cc(OCCOC)c(OCCOC)cc23)c1 [Erlotinib] + CCCCNC(=O)OCC#CI [3-iodo-2-propynyl butylcarbamate (IPBC)]
criterion met

Further cases:
Quick check, growth yield >= 80%? O=C(Cn1ccnc1[N+](=O)[O-])NCCO [Etanidazole] + CCCCNC(=O)OCC#CI [3-iodo-2-propynyl butylcarbamate (IPBC)]
criterion met

* * *

# System: Trichoderma virens ATCC 9645
# measurement-description: growth yield (OD600) with compound + IPBC relative to untreated control; higher = less growth inhibition
# assay-setup: compound concentration: 100 uM; IPBC concentration: 200 ng/ml; 40 h
Where a name gives a salt, the structure may show the parent alone. The whole screen tested about 1,300 compounds, of which about 130 (10%) showed an effect of 50% or more. Only a selection was taken, and strong results are over-represented in it overall.
// values below are reported growth yield

These recorded examples may help you get a feel for the data.
I have this molecule here, CO/N=C1\CN(c2nc3c(cc2F)c(=O)c(C(=O)O)cn3C2CC2)CC1CN (stereo not given) [Gemifloxacin mesylate] + CCCCNC(=O)OCC#CI [3-iodo-2-propynyl butylcarbamate (IPBC)] , and I need its recorded growth yield.
103%

I have this molecule here, CC(=O)OC[C@H]1O[C@@H]([S-])[C@H](OC(C)=O)[C@@H](OC(C)=O)[C@@H]1OC(C)=O.CCP(CC)CC.[Au+] [Auranofin] + CCCCNC(=O)OCC#CI [3-iodo-2-propynyl butylcarbamate (IPBC)] , and I need its recorded growth yield.
23.2%

I have this molecule here, Cc1[nH]cnc1CN1CCc2c(c3ccccc3n2C)C1=O [Alosetron hydrochloride] + CCCCNC(=O)OCC#CI [3-iodo-2-propynyl butylcarbamate (IPBC)] , and I need its recorded growth yield.
85.5%

I have this molecule here, CN1CCN(C2=Nc3cc(Cl)ccc3Nc3ccccc32)CC1 [Clozapine] + CCCCNC(=O)OCC#CI [3-iodo-2-propynyl butylcarbamate (IPBC)] , and I need its recorded growth yield.
65.6%

Further cases:
I have this molecule here, O=C(O)CCCC[C@@H]1SC[C@@H]2NC(=O)N[C@@H]21 [Biotin] + CCCCNC(=O)OCC#CI [3-iodo-2-propynyl butylcarbamate (IPBC)] , and I need its recorded growth yield.
85.3%

* * *

# Test system: Trichoderma virens ATCC 9645
# measurement-description: growth yield (OD600) with compound + IPBC relative to untreated control; higher = less growth inhibition
# assay-setup: compound concentration: 100 uM; IPBC concentration: 200 ng/ml; 72 h
Counter-ions that a name gives are not always drawn. Out of some 1,300 compounds screened, about 130 (10%) showed an effect of 50% or more. The sample as a whole holds a higher share of strong results than the screen did.
measurement-name: growth yield (%)
Quick note: give the figure in %, leave out the unit.

These recorded examples may help you get a feel for the data.
I have this molecule here, CN1C(=O)CCS(=O)(=O)C1c1ccc(Cl)cc1 (stereo not drawn) [Chlormezanone] + CCCCNC(=O)OCC#CI [3-iodo-2-propynyl butylcarbamate (IPBC)] , and I need its recorded growth yield.
92.5

I have this molecule here, CC(C)Cc1ccc([C@H](C)C(=O)O)cc1 [S-(+)-ibuprofen] + CCCCNC(=O)OCC#CI [3-iodo-2-propynyl butylcarbamate (IPBC)] , and I need its recorded growth yield.
96.7

Further cases:
I have this molecule here, CCCCC(CC)CNC(=N)NC(=N)NCCCCCCNC(=N)NC(=N)NCC(CC)CCCC (stereo not drawn) [Alexidine dihydrochloride] + CCCCNC(=O)OCC#CI [3-iodo-2-propynyl butylcarbamate (IPBC)] , and I need its recorded growth yield.
2.94

* * *

# Test system: Trichoderma virens ATCC 9645
# measurement-description: growth yield (OD600) with compound + IPBC relative to untreated control; higher = less growth inhibition
# assay-setup: compound concentration: 100 uM; IPBC concentration: 200 ng/ml; 72 h
Screen size: about 1,300 compounds; about 130 (10%) showed an effect of 50% or more. The list comes from a sample in which strong results are over-represented; it also holds close analogues and randomly drawn compounds.
// values below are reported growth yield
Quick note: give the figure in %, leave out the unit.

These recorded examples may help you get a feel for the data.
I have this molecule here, COC(=O)[C@H]1[C@H]2C[C@@H]3c4[nH]c5cc(OC)ccc5c4CCN3C[C@H]2C[C@@H](OC(=O)c2cc(OC)c(OC)c(OC)c2)[C@@H]1OC [Reserpine] + CCCCNC(=O)OCC#CI [3-iodo-2-propynyl butylcarbamate (IPBC)] , and I need its recorded growth yield.
104

I have this molecule here, O=C(OCCOCCO)c1ccccc1Nc1cccc(C(F)(F)F)c1 [Etofenamate] + CCCCNC(=O)OCC#CI [3-iodo-2-propynyl butylcarbamate (IPBC)] , and I need its recorded growth yield.
94.4

I have this molecule here, O=[N+]([O-])O[C@@H]1CO[C@H]2[C@@H]1OC[C@@H]2O [Isosorbide mononitrate] + CCCCNC(=O)OCC#CI [3-iodo-2-propynyl butylcarbamate (IPBC)] , and I need its recorded growth yield.
91.3

I have this molecule here, CC(=O)NS(=O)(=O)c1ccc(N)cc1 [Sulfacetamide sodic hydrate] + CCCCNC(=O)OCC#CI [3-iodo-2-propynyl butylcarbamate (IPBC)] , and I need its recorded growth yield.
93.7

Turning now to a further record.
I have this molecule here, CC(=O)N(CC(C)C(=O)O)c1c(I)cc(I)c(N)c1I (stereo not given) [Iocetamic acid] + CCCCNC(=O)OCC#CI [3-iodo-2-propynyl butylcarbamate (IPBC)] , and I need its recorded growth yield.
102
